Give measured median log2 fold change for each item. Keep answers brief.
- systemName: MAP1LC3A, Q9H492
- assayProtocol: median log2 fold change of GCK-ALFA target abundance (FLAG IP / Myc IP barcode read proportion) (log2 ratio); each designed protein is fused to an ALFA-tag nanobody in HEK293 cells to bring the named protein to FLAG-tagged glucokinase (GCK); Myc marks an untargeted standard; higher = target protein stabilised (more abundant)
- experimentalParameters: target protein: 3xFLAG-MCP-GCK-ALFA reporter; HEK293 landing pad (RPLP)
Whole data set: some 2,300 sequences, median “median log2 fold change of GCK-ALFA target abundance (FLAG IP / Myc IP barcode read proportion)” near 0.095, cut for the lowest 2% near -0.47. This is one part of a sample in which the lowest values are shown more often than they occur.
The reply should be a number, written without any unit.

Ask: Endpoint output: median log2 fold change of LC3A_28_1058 (protein) MSIEEQLEKALEEAKEAVKKGEEALVELKINKDSTEEDVEKVLETMKEIAELTKDLPSVSIVVDVDHENKEEVTKKVSELGDELEKKYPNVTVIIALSEE . Value?
Result: -0.699

Ask: Endpoint output: median log2 fold change of LC3A_28_685 (protein) SKTEEDLKKALEEAEEALKKGEPTVVRINVYGDVTEEELEKVLKALEEIAKILNKIPGSAIIVDIDADVDEEFEDKIIDKAEELEKKYPNVTIIIALEER . Value?
Result: -0.264

Ask: Endpoint output: median log2 fold change of LC3A_free_46_2354 (protein) VEAKIEVDLLHEDEEVLKKAVEAIKEAAKKIAKKYGLKVEIKEKIEKLPDGSYFAEIEITLKGEDKETLEKAVNELINEIDEIAKKYDVAAIISYEIIEK . Value?
Result: -1.38e-07

Ask: Endpoint output: median log2 fold change of LC3A_free_26_2149 (protein) DEFIDIVELDKAIDLLEELLKLLEENELASEEEKKLAKEALEEAKKETLESLKKALKLVEELLKLLKKNEKLPEETKKKLIKLAEEAIKHIKENIKIMES . Value?
Result: -0.0408

Ask: Endpoint output: median log2 fold change of LC3A_28_1155 (protein) SAEVEEAKKLIDEDAERDKDEEEVYLEVKITSSVTVEEAREIMDHVEEVVEKLKDKKKIYVVVTFEEPVSQEVLDEVLRRAEEIEEKFPNVDVIIALPED . Value?
Result: -0.446

Ask: Endpoint output: median log2 fold change of LC3A_28_1235 (protein) NAVEKQIEAAKAEVEAAVAAGEEALVELTVTKETTEEDVEKIIKAMEEIAALAATLPALTIIIDVERGVKQEHIDKLADAADAIEAKYPNVTVIIALEEE . Value?
Result: 0.0727

Ask: Endpoint output: median log2 fold change of LC3A_28_1049 (protein) SPIEEELKRALEEAKEAVARGEEALIRLTIGKDATEEDVEKVLETMEEIAELTKSLPRVDIVVDVDSENKEEVTKKIAEKGEELEKKYPNVTVYIALSEE . Value?
Result: 0.00401

Ask: Endpoint output: median log2 fold change of LC3A_free_39_2288 (protein) SMEELEKAVKRLAELLDKIEGVTEEEKQTILEAAKKSLETAKAILEALETIEKDGGDVAEAAKRIAAKIKELEAAGKSLEEMTEEIIALTKDLVNLIPID . Value?
Result: 0.326

Ask: Endpoint output: median log2 fold change of LC3A_free_0_2099 (protein) MTTVVEVLGIIDNENDKEAAEAIAEELKKLGKKLSEEKGWKVTVELKKVNGSYVITVTIEGKGMSIEEGLEIADEIADKIERLAKEHGVEVTIYTSVYEE . Value?
Result: -0.379

Ask: Endpoint output: median log2 fold change of LC3A_28_1140 (protein) SALVEAAKAQIEADAEADKDEPEVLLRVTITSEMTVEQAREIMDHVEEVVEKLKDKEKIYIVVDATEPISQEVLDEIVERLEEIEKKYPNVSSIIALPED . Value?
Result: -0.0164

Ask: Endpoint output: median log2 fold change of LC3A_28_1154 (protein) SANVEAAKKQIDEDAEKDKDEEEVYLNVTITSEDTVEEAKEIMEHVEEVVEKLKDKKKIYVVITFEEPVSQEVLDTVLEKAEEIEKKFPNVSVIIALPED . Value?
Result: -0.142

Ask: Endpoint output: median log2 fold change of LC3A_59_2018 (protein) SEELEALRERLREAVDDIDAFVAIVREGLERFRDDPERVRALLRAAMDVIVEELGMDPEEAEKTLAEMLAIWETEPDKEEAIARVTELVRDTLLLTPIEE . Value?
Result: -0.587

Ask: Endpoint output: median log2 fold change of LC3A_free_8_2441 (protein) SNQELVDAALKLLDELEEEIEKKAKELGLDETDIGLLLLEVGSAISEVISLSDASPEEILKATKEDLEEIIKLAEEINKELAKIVKEKAEKILKELEKLL . Value?
Result: 0.0457

Ask: Endpoint output: median log2 fold change of LC3A_147_445 (protein) VKVEVTIGVLMKNKPEVGDELVEKLRETAEAAGAEVEVEVEREKIDENTVYLLIKLTLTTETREAAEALANKVIDTVEEFAEKHKDEILGYIISVEISEA . Value?
Result: -0.265

Ask: Endpoint output: median log2 fold change of LC3A_free_46_2355 (protein) VKAEILIDLLHEDEEVLKKAVEEIKKAAKEIAKKYGLKVEIKEEISKLPDGSYYAEIEITLTGETKEKLEKAVTELINKIDEIAKKYNVAAIISYEIIEE . Value?
Result: -0.335

Ask: Endpoint output: median log2 fold change of LC3A_28_1087 (protein) SELEEQLKKALEEAKKAKEEGKEVTLEITVPDTATEEDIELVKETLKEIAEIAKELPSLSVVINLTGKNAQAKATELSAHAEELEKEVPNLTVIIALDED . Value?
Result: 0.251

Ask: Endpoint output: median log2 fold change of LC3A_28_1295 (protein) SEIEKNLKEALAEAKKAKAEGKQVVITVKVPGDATQEEIELVIKGLEEIAKVLEDVPNQTIIIDVEAGVKQEHIDLLADRAEEIEKKYPNVTVIIALDED . Value?
Result: 0.184
